molecular target: Ataxin-2 (Homo sapiens) (UniProt Q99700); assay: qHTS for Inhibitors of ATXN expression.; assay type: functional
Sequence (Q99700 whole entry): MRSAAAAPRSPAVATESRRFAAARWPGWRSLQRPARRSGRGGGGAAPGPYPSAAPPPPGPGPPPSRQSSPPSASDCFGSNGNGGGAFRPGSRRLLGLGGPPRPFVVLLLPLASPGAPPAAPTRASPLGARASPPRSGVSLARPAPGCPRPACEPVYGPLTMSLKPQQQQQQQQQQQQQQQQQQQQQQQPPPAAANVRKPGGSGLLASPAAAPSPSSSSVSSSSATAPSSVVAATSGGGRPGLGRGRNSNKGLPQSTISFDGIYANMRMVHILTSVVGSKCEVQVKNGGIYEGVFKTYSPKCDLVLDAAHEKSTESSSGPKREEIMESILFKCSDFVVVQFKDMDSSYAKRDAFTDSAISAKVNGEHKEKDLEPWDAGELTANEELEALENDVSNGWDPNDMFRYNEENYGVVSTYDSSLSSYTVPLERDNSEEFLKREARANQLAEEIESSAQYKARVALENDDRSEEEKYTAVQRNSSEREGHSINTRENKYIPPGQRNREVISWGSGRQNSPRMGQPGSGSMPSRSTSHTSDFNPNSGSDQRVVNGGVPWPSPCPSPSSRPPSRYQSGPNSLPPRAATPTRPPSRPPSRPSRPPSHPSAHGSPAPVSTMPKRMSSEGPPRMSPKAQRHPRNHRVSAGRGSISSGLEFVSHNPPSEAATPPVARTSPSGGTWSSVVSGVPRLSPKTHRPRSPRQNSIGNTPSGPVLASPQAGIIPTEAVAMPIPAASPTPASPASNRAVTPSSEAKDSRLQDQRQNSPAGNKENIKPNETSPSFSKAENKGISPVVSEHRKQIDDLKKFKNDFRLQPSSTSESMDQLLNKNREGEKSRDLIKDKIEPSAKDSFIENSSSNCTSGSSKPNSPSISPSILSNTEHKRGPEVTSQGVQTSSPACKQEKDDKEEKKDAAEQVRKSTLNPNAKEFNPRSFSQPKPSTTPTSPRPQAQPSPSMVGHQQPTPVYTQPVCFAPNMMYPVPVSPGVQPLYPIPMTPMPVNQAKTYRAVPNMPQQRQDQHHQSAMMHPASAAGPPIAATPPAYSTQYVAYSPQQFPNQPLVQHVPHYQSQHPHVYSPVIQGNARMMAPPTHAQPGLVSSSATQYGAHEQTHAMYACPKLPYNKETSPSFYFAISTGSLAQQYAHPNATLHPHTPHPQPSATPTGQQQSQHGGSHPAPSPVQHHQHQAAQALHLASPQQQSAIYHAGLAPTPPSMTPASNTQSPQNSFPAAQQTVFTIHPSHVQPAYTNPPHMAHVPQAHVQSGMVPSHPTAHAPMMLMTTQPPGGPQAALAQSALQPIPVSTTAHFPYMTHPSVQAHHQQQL
The campaign covered roughly 400,000 compounds. About 2,100 (0.53%) were called active. Roughly 14% stayed inconclusive and do not appear here. The rule behind the calls is not given here. The sample holds actives, similar compounds and a random draw of the others, so the mix is not that of the screen.
// allowed return values: t = active, f = inactive

input: Can you look up the reported call for Cc1nc2ccc(NC(S)=NC3CCCCC3)cc2nc1C for me?
output: f

input: Can you look up the reported call for O=C(OCC(=O)N1CCCC1)c1c[nH]c2ccccc12 for me?
output: f

input: Can you look up the reported call for Cn1cc(CN2CCN(Cc3ccc4c(c3)OCO4)CC2)c(-c2ccccc2F)n1 for me?
output: f

input: Can you look up the reported call for Cc1ccc(S(=O)(=O)CCC(=O)OCC(=O)NC(C)c2ccccc2)cc1 (stereo not given) for me?
output: f

input: Can you look up the reported call for COc1cc(C(CCN2CCCC2)c2c(OC)cc(OC)c3c(-c4ccccc4)cc(=O)oc23)cc(OC)c1OC (stereo not given) for me?
output: t

input: Can you look up the reported call for CC(C)c1ccc2c(c1)CCC1C(C)(CN)CCCC21C (stereo not given) for me?
output: t

input: Can you look up the reported call for CCCc1cc(=O)oc2c(C)c(O)c(CN3CCCCC3)cc12 for me?
output: f

input: Can you look up the reported call for O=C1NC[C@@H](c2ccccc2)OC(=O)[C@@H](Cc2ccc(F)cc2)CC/C=C/C[C@H]1CC(=O)N(CCO)Cc1ccccc1 for me?
output: t

input: Can you look up the reported call for CCOC(=O)CCS(=O)(=O)c1nc(-c2ccccc2)cc(C(F)(F)F)n1 for me?
output: t

input: Can you look up the reported call for CC(=O)N/N=C/c1cc(C(C)(C)C)cc(/C=N/NC(C)=O)c1O for me?
output: f

input: Can you look up the reported call for Cc1ccc(C(=O)COC(=O)c2cccc(NC(=O)c3ccc(Cl)cc3Cl)c2)cc1 for me?
output: t

input: Can you look up the reported call for COCC(C)NC(=O)c1cnn2c(C(F)F)cc(-c3ccccc3)nc12 (stereo not given) for me?
output: f

input: Can you look up the reported call for CCCCN(C)S(=O)(=O)c1ccc(C(=O)Nc2sc3c(c2C(N)=O)CC(C)(C)NC3(C)C)cc1 for me?
output: f

input: Can you look up the reported call for Cc1ccc2c(c1)[nH]c1c(N3CCN(Cc4ccccc4)CC3)ncnc12 for me?
output: t

input: Can you look up the reported call for Cn1c(=O)c2c(nc(Oc3cccc(Br)c3)n2C)n(C)c1=O for me?
output: f

input: Can you look up the reported call for COc1ccc(-c2c(C(F)(F)F)nn3c(O)cc(-c4ccccc4)nc23)cc1 for me?
output: f

input: Can you look up the reported call for Fc1ccc2[nH]c3c(N4CCN(Cc5ccc6c(c5)OCO6)CC4)ncnc3c2c1 for me?
output: t

input: Can you look up the reported call for CCOC(=O)N1CCc2[nH]c3ccc(C)cc3c2C1 for me?
output: f

input: Can you look up the reported call for OC[C@@H]1[C@@H](c2ccc(Cl)cc2)C(c2ccccc2)=NN1c1ccccc1 for me?
output: f

input: Can you look up the reported call for COc1cc(C(CCN2CCCC(C)C2)c2c(OC)cc(OC)c3c(-c4ccccc4)cc(=O)oc23)cc(OC)c1OC (stereo not given) for me?
output: t
